Below, each entry is listed alongside its reported fold repression.
- TESTED SYSTEM: T1, ECF04_1609
- T1 chain: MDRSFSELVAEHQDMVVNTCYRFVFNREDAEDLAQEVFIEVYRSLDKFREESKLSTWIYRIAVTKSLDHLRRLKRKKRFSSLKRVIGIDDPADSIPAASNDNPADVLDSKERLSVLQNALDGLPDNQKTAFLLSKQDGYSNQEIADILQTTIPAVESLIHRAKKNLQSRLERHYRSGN

{"BINDER": "AS27_4265 (protein) MTGHPDVAEIADLAEGLLPTTRTTEVRQHLESCELCADVYASLTEIQGLLGTLPAPAPMPDDVAARIDAALAAEPPLGIADGTRVSRETSTPADRPAGHARPSSTGPGRKDRRRGGRRRIAVLGAVAAAAAIGIGSVVVSSLTEDSSSGNTAREQQTAIADTFSEGRLKDRVTNLVADGSAENGSRTPRSFGMESENGGETAENHVFKQPTVPECIRKGIGRDDAVIATEPGVYKGREALLVVLPDATNDTQVTAYIVETACVDQPAVGKAKILLEHSYARS", "fold repression": 2.44}
{"BINDER": "AS20_992 (protein) MTPERFVHLADAYGADLQRWPSAERAAAQALLDCGDAQAVAALRQAHWLDSQLDRYQVPAPSPALAQRIIAAAQQPGAPFWSRYAGWLASLGWVGVGLTGVAAGMLAVALSLPLSTSAEALPSVFDQSDAEFVLSINAEEAEQ", "fold repression": 1.95}
{"BINDER": "AS25_1643_cl43 (protein) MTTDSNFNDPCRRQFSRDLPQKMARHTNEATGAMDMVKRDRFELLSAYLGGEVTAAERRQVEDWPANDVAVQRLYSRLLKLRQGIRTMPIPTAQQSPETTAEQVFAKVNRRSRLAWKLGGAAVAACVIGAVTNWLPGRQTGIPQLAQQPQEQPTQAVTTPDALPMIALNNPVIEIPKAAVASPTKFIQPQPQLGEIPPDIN", "fold repression": 2.44}
{"BINDER": "AS31_34 (protein) MNKEKLSDHLKSEWKKIDQTANPSIPNQKELLHQLSQMKAEYRKKLLQEIILFVFCALMVVSAAILAFTQAPAVFIVLQVCVLAVLPILIAAEKKRHLGECEVKRG", "fold repression": 2.79}
{"BINDER": "AS14_1324 (protein) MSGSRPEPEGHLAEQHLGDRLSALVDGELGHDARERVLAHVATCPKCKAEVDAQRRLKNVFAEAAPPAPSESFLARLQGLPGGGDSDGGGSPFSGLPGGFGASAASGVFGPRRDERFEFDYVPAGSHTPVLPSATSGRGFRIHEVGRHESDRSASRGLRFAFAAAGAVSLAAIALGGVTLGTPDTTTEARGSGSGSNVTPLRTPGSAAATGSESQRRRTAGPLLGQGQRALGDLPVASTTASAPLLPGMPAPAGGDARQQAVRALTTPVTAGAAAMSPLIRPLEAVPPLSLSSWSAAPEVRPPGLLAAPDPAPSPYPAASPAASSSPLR", "fold repression": 4.65}
{"BINDER": "AS35_3582 (protein) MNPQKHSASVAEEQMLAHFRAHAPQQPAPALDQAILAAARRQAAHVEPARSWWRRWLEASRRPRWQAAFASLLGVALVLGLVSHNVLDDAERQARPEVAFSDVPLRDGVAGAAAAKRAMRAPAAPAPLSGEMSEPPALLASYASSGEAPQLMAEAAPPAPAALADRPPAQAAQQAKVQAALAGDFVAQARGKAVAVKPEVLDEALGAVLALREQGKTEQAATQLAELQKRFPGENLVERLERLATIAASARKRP", "fold repression": 6.84}
{"BINDER": "AS15_524 (protein) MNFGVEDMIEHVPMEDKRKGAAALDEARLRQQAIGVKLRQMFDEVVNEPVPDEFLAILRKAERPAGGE", "fold repression": 6.89}
{"BINDER": "AS16_973 (protein) MKTDDLIALLAAGEGPVPRHAVGRRMAVAALGGLTAALLLTITLYGVRSDITEVAQTPLFWGKVAFPTSLALIGLWLTSRLARPGGKGAAGWKMLGLPLLLVWCGAAVSIAGAPVDARADLLFGRTWRTCALNIALLSVPAFVTVFWALKGLAPTRLRLAGAAGGLLAGSSATVAYCLHCPEMGVPFWGVWYVLGMLVPTVLGAWWGPRMLRW", "fold repression": 0.632}
{"BINDER": "AS22_1147 (protein) MELDDIAVAWRSLEQRLDQHAALAGQVLGDLRSHAARAHLRPLWLSQSAQLLCAIALSGLVAHSWLAFPEQAAAIVGGVLLQIWCVALAASAARQLWLLSQLDFARPLLQTQRALAQLRRWRTRVAPWLGVAFWVLWVAVADAAWRALTGRSLPYAWLLCNLLVGVLGGIGTWLGYRRLQRSGHPWLERLDTVHAGRSVARTETLLEQIARFQRE", "fold repression": 3.52}
{"BINDER": "AS33_375 (protein) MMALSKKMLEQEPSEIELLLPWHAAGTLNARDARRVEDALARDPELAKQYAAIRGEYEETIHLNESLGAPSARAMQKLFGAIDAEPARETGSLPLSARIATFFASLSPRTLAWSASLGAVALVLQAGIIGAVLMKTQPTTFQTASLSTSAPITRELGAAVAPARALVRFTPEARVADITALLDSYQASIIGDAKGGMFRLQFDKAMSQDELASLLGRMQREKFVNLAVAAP", "fold repression": 11.1}
{"BINDER": "AS01_3473 (protein) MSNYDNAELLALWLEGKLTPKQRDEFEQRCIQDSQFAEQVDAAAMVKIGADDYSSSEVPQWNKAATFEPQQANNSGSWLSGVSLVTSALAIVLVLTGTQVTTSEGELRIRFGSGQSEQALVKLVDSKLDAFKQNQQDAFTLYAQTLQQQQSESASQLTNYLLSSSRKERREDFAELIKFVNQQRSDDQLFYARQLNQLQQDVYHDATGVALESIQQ", "fold repression": 1.67}
